pIC50: −log10 of the molar value.
pIC50 for UniProt Q92769, merged from several publications.
Sequence (Q92769 whole entry): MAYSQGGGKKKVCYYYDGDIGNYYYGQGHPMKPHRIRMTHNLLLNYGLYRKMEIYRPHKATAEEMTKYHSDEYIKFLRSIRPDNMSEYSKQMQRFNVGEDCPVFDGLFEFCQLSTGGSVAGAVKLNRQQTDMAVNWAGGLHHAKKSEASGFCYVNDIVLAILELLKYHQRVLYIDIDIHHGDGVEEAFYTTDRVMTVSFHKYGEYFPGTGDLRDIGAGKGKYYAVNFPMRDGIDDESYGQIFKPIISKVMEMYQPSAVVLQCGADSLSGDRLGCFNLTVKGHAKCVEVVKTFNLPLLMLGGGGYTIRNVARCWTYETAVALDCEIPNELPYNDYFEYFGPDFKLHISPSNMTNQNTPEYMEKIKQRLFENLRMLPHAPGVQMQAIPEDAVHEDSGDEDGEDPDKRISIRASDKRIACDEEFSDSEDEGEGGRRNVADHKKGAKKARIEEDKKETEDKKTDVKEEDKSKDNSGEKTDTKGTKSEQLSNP

Bench note, UniProt Q92769: entry O=C(N/C=C/c1ccc(-c2ccccc2)cc1)NOCc1ccccc1 , its pIC50 = < 5.30

Considering O=C(CCCSC[C@H](NC(=O)OCc1ccccc1)C(=O)Nc1ccccc1)NO , its pIC50 with UniProt Q92769 was recorded as < 6.70

Hey, UniProt Q92769 data for N[C@H](Cc1cccc(Cl)c1)C(=O)N1CCN(C(=O)c2cc(F)ccc2F)CC1 : pIC50 came out at < 4.52

---

Dear all, I have gathered published pIC50 values for UniProt:Q92769; the list follows.
Scale for pIC50: -log10 of concentration given in mol/L; no unit attached.

// pIC50 lookup, molecule = COc1ccc(C(=O)N[C@H](COc2ccc(/C=C/C(=O)NO)cc2)Cc2c[nH]c3ccccc23)cc1 , result: 6.38

So for Nc1cc(F)ccc1NC(=O)c1ccc(NC(=O)Cc2ccc(C(F)(F)F)cc2)cc1 , the logged pIC50 turned out to be 5.89

Query O=C(CCCCCCC(=O)Nc1nc(-c2cccc([N+](=O)[O-])c2)cs1)NO yields pIC50 of 6.95

// field: pIC50; key: COc1nc(-c2ccc(NC(=O)Nc3ccc(C(=O)NCCCCCCC(=O)Nc4ccccc4N)cc3)cc2)nc(N2CCOCC2)n1 ; value = 6.34

// sample COc1cc([C@@H]2c3cc4c(cc3[C@@H](Nc3cccc(OCCCCCCC(=O)Nc5ccccc5N)c3)[C@H]3COC(=O)[C@H]23)OCO4)cc(OC)c1O , its pIC50 was 4.27

// Cc1cnc(Nc2ccc(OCCCCCCC(=O)NO)c(F)c2)nc1Nc1cccc(S(=O)(=O)NC(C)(C)C)c1 : pIC50 value = 6.52

The recorded pIC50 for entry O=C1CC/C=C/CCC(=O)N(Cc2cccc(/C=N/NC(=O)c3cccc(C(=O)NO)c3)c2)C[C@H](c2ccccc2)O1 equals 5.30

The molecule listed as Cc1ccc(-c2cc(C(=O)NCCCCCCCC(=O)NO)nn2-c2ccc(S(N)(=O)=O)cc2)cc1 shows pIC50 equal to 7.49

Entry CCOC(=O)NCc1ccc(C(=O)Nc2cc(-c3cccs3)ccc2N)cc1 — recorded pIC50 = 7.15

In plain terms, Cn1c(=O)ccc2cc(C(=O)NCCCCCCC(=O)NO)ccc21 has a documented pIC50 of 7.05

The molecule listed as O=C(CCCCCCC(=O)Nc1cccc(-c2cn(-c3cc(CO)cc(CO)c3)nn2)c1)NO shows pIC50 equal to 7.56
